Reference for the values: paper PMC11545984

Test system: DU145
Protocol notes: Initial cytotoxicity testing (MTT test), DU145
Format: cell-based, human
Experimental setup: Homo sapiens, DU-145, 72 h, read-out: cytotoxicity DU145
I'd be grateful if you could share measured IC50 for these entries.

Recorded IC50 (molecule CC1(C)C[C@H]2[C@H]1CC[C@]1(C)[C@@H](CC[C@@]23CC(c2ccccc2)=NN3c2ccccc2)C(c2ccccc2)=NN1c1ccccc1 [Compound 29] ): > 50 µM

Entry C=C1CC[C@H]2C(c3ccccc3)=NN(c3ccccc3)[C@]2(C)CC[C@@H]2[C@@H]1CC2(C)C [Compound 22b] — recorded IC50 = > 50 µM

According to the records, this molecule C=C1CC[C@@H]2C(c3ccc(OC)cc3)=NO[C@@]2(C)CC[C@@H]2[C@@H]1CC2(C)C [Compound 17b] displays IC50 of < 50 µM

Consider C=C1CC[C@@H]2C(C)=NN(c3ccccc3)[C@@]2(C)CC[C@@H]2[C@@H]1CC2(C)C [Compound 21b] . Its measured IC50 is > 50 µM

Query C/C1=C\CC[C@@]2(CC(c3ccccc3)=NN2c2ccccc2)[C@H]2CC(C)(C)[C@@H]2CC1 [Compound 22a] yields IC50 of > 50 µM

Documented IC50 of CC1(C)C[C@H]2[C@H]1CC[C@]1(C)ON=C(c3ccc(Cl)cc3)[C@H]1CC[C@@]21CC(c2ccc(Cl)cc2)=NO1 [Compound 25] : 50 to 100 µM

Entry C=C1CC[C@@H]2C(c3ccc(Cl)cc3)=NO[C@@]2(C)CC[C@@H]2[C@@H]1CC2(C)C [Compound 16b] — recorded IC50 = > 50 µM
